Tested on: U251 CNS
Assay: NCI tumour cell line growth inhibition, 48 h

molecule | TGI
CC(=O)OCC1OC(n2c3c(c(-c4ccc(C)cc4)c(C#N)c2=S)C(=O)CC(C)(C)C3)C(OC(C)=O)C(OC(C)=O)C1OC(C)=O (stereo not given) | > 100 µM
COc1ccc2c(c1)[C@@H](NC(C)=O)CCc1cc(OC)c(OC)c(OC)c1-2 | 2.02 µM
C=C1CC[C@](C)(O)[C@@]2(C)CC[C@H]3C(=C(C)C)C(=O)C[C@]3(C)C[C@H]12 | > 50 µM
O=C(O)CN1CCSc2ccccc2CN(CC(=O)O)CCSc2ccccc2C1 | > 100 µM
NC(Cc1ccc(CP(=O)(O)O)cc1)C(=O)O (stereo not given) | > 100 µM
O=C(/C=C\c1ccc(O)c(O)c1)c1ccccc1O | 33.1 µM
NCCCCCC(CCN)SCC1OC(n2cnc3c(N)ncnc32)C(O)C1O (stereo not given) | > 1500 µM
CC(NCc1c(O)ccc2c(-c3ccccc3)cc(=O)oc12)C(=O)O (stereo not given) | > 100 µM
C[N+]1(C)C2CC(OC(=O)C(CO)c3ccccc3)CC1C1OC12 (stereo not given) | > 100 µM
O=c1c2ccccc2nc(-c2cccc([N+](=O)[O-])c2)n1O | > 100 µM

====

System: UO-31 renal
Assay: NCI tumour cell line growth inhibition, 48 h
measure name: TGI

compound | measured value
Cc1cn([C@@H]2O[C@H](CO[Si](C)(C)C(C)(C)C)[C@]3(O[C@H]3C(=O)NO)[C@H]2O[Si](C)(C)C(C)(C)C)c(=O)[nH]c1=O | 3.28 µM
CCOC(=O)CC1=N/C(=N/C(=N)N[N+](=O)[O-])SC1 | > 100 µM
O=C(CCC(=O)c1ccsc1)c1ccsc1 | > 100 µM
CCN(CC)CC(=O)NC1c2ccccc2Oc2ccccc21 | > 100 µM
CN1CCN(c2cc3[nH]c4cc(O)cc(O)c4c(=O)c3cc2N)CC1 | 67.3 µM
CCCCCCCCCCCCCCCCOCC(COP(=O)(O)OCC1OC(n2cc(CC)c(=O)[nH]c2=O)CC1O)OC(=O)CCCCCCCCCCCCCCC (stereo unspecified) | > 100 µM
COc1ccc(/C=C/C(=O)c2cc(OC)cc(OC)c2)cc1 | 12.4 µM
C/C(=N/NC(=O)c1ccccc1S(N)(=O)=O)C(CN1CCCCC1)C(C1=C(O)C2C=CC=CC2OC1=O)c1ccccc1 (stereo unspecified) | > 100 µM
CC(C)(CN1CCCCC1)C(=O)/C=C/c1ccccc1 | 39.6 µM
Cc1ccc2c(c1C)C(=O)C1(C2)Cc2ccc3c(c2C1=O)CCC3 (stereo unspecified) | > 100 µM
Cc1cccc(Nc2nc3ccccc3nc2NS(=O)(=O)c2ccc(N)cc2)c1 | 56.6 µM
CC1CCCCCC(=O)c2c(O)cc(O)cc2CC(=O)O1 (stereo unspecified) | > 100 µM
N#CC(C(=O)CCCC(=O)Nc1ccccc1[N+](=O)[O-])c1c(Cl)cccc1Cl (stereo unspecified) | > 100 µM
Cc1ccc(-c2n[nH]c(=O)n2/N=C\c2ccccc2O)cc1 | > 100 µM
O=[N+]([O-])c1ccc(C2=NCCO2)cc1 | > 100 µM
C=CCOC(=O)Cn1cnc2c(N)ncnc21 | > 100 µM
COc1ccc2c(c1)[C@@H](NC(C)=O)CCc1cc(OC)c(OC)c(OC)c1-2 | > 100 µM
COC(=O)[C@@H](C)C[C@H](Cc1ccccc1)NC(=O)c1nc([C@@H](C[C@H](C(C)C)N(C)C(=O)[C@@H](NC(=O)[C@H]2C[C@H](O)CCN2C)C(C)C)OC(C)=O)sc1C(C)C | > 11.1 µM
CC(C)=CCc1cc2c(cc1O)C1=C(C(=O)C3=C(NCCS3(=O)=O)C1=O)C(C=C(C)C)O2 (stereo unspecified) | > 16.7 µM
COc1ccc(-c2csc3c2-n2cccc2C3=O)cc1 | > 44.2 µM
C[N+]1(C)C2CC(OC(=O)C(CO)c3ccccc3)CC1C1OC12 (stereo unspecified) | > 100 µM
